Below: molecules with Ki recorded for Matrilysin (Homo sapiens, UniProt P09237) in separate published works.
Outcome measure: Ki (nM)

Below: 10 molecules and their reported Ki.
{"columns": ["Molecule", "Uom", "Result value"],
 "data": [
  ["CC1(C)SCCN(S(=O)(=O)c2ccc(Oc3ccc(Br)cc3)cc2)[C@H]1C(=O)NO", "nM", 2.8],
  ["O=C(NO)[C@H]1COCCN1S(=O)(=O)c1ccc(Oc2ccc(Cl)cc2)cc1", "nM", 77],
  ["CSC(C)(C)[C@@H](NS(=O)(=O)c1ccc(Oc2ccc(Cl)cc2)cc1)C(=O)NO", "nM", 115],
  ["CC(C)(C)[C@H](NC(=O)C(CC(=O)O)c1ccsc1)C(=O)Nc1ccncc1 (stereo in doubt)", "nM", 156],
  ["CC(C)(C)[C@@H](CO)NC(=O)[C@@H](CC(=O)O)n1ccc(-c2ccc(-c3ccc(C(N)=O)cc3)cc2)c1", "nM", 2530],
  ["CC(C)(SCc1ccccn1)[C@@H](NS(=O)(=O)c1ccc(Oc2ccc(Br)cc2)cc1)C(=O)O", "nM", 75000],
  ["O=C(O)C[C@H](C(=O)N[C@H]1Cc2cn(c3ccccc23)CCCCCCNC1=O)n1cccc1", "nM", 15000],
  ["CC(C)(C)[C@H](NS(=O)(=O)c1ccc(Oc2ccccc2)cc1)C(=O)NO", "nM", 376],
  ["O=C(NO)C1CSCCN1S(=O)(=O)c1ccc(Oc2ccc(F)cc2)cc1 (racemic)", "nM", 313],
  ["O=C(O)C[C@H](C(=O)N[C@H](CO)Cc1ccccc1)n1cc(-c2ccc(-c3ccccc3)cc2)cn1", "nM", 63000]
]}

1 = CC(C)(C)OC(=O)N1CCN(S(=O)(=O)c2ccc(Oc3ccc(Br)cc3)cc2)C(C(=O)NO)C1 (racemic)
2 = Cn1cnc(S(=O)(=O)N2CCN(S(=O)(=O)c3ccc(Oc4ccc(Cl)cc4)cc3)[C@@H](C(=O)NO)C2)c1
3 = CC(C)(SCc1ccccn1)[C@@H](NS(=O)(=O)c1ccc(Oc2ccc(Br)cc2)cc1)C(=O)NO
**Q:** Order each entry by recorded Ki, climbing from the minimum. Sort the labels as requested; that list is your answer.
**A:** 3, 2, 1
